We begin with a simple list: items and their reported pKd.
# Target Or System: NOS1, P29475
# Sequence (P29475 9-101): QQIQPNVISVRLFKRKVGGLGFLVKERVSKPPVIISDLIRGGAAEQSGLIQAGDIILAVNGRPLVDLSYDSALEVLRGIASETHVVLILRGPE
# Assay Text: holdup assay
# Set-up: key: below the threshold = too weak to quantify, mostly under pKd 3.1 to 4
# Test Conditions: plain residues with an end cap or a label only (N-terminal biotin on a linker: ahx)

Binder: RAVEEEESRF [PSCDBP, O60759]
pKd: 3.62
//
Binder: TVICWPGSLV [LNX2, Q8N448]
pKd: 3.82
